test: Measurement of plasma concentration of 5-ASA (HPLC) after administration to rats; assay type: in vivo, rat; settings: rat, iv; plasma 5-ASA, SD male rats, i.v., 1 mg/kg; read-out: Area under the curve of concentration (AUC)

STRUCTURE: Nc1ccc(O)c(C(=O)O)c1
OUTPUT_UNIT: µg·h/mL
AUC: 1.42
